Values from patent US20250051279A1

# assay-method-text: Dynamic vapor sorption (DVS) hygroscopicity
# Type: physicochemical
# Parameters: key: “+/+/+” indicates most favorable; “+/+” indicates more favorable; “+” indicates favorable; “−” indicates unfavorable; “−/−” indicates more unfavorable; “−/−/−” indicates most unfavorable
# applied-conditions: DVS
measured-quantity: Hygroscopicity

CN(C)CCc1c[nH]c2ccccc12 [Example 3] :: +/+/+
CN(C)CCc1c[nH]c2ccccc12 [Example 7] :: −/−/−
CN(C)CCc1c[nH]c2ccccc12 [Example 4] :: +/+/+
CN(C)CCc1c[nH]c2ccccc12 [Example 5] :: −
CN(C)CCc1c[nH]c2ccccc12 [Example 9] :: −/−/−
CN(C)CCc1c[nH]c2ccccc12 [Example 6] :: −/−/−
CN(C)CCc1c[nH]c2ccccc12 [Example 1] :: +/+/+
CN(C)CCc1c[nH]c2ccccc12 [Example 8] :: −/−/−
CN(C)CCc1c[nH]c2ccccc12 [Example 2] :: +/+/+
